test system: 889142-216-R-J1-PDC complex spheroid viability; assay: Anticancer human tumor 889142-216-R-J1-PDC patient-derived bladder carcinoma cell line growth inhibition [POLQ]; conditions: second compound 3.16 µM; first compound 0.0316 µM; stronger effect = lower value;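 also: spheroids exposed to compounds for seven days; 100% = DMSO vehicle control viability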
The following compounds are listed with their measured viability, T/C values.

compound: COc1ccc([C@@H](O)c2cc(-c3ncnc4cc(N5CCOCC5)ccc34)c(F)cc2Cl)nn1 + Nc1ccc(C#CCN(C(=O)Cc2ncc(C(F)(F)F)cc2C(F)(F)F)c2ccc(F)cc2)nn1
viability, T/C [%]: 74.3
//
compound: Cn1ncnc1[C@H]1c2n[nH]c(=O)c3cc(F)cc(c23)N[C@@H]1c1ccc(F)cc1 + COC1C(OC(N)=O)C(O)C(Oc2ccc3c(O)c(NC(=O)c4ccc(O)c(CC=C(C)C)c4)c(=O)oc3c2C)OC1(C)C
viability, T/C [%]: 71.5
//
compound: CNCc1ccc(-c2[nH]c3cc(F)cc4c3c2CCNC4=O)cc1 + COC1C(OC(N)=O)C(O)C(Oc2ccc3c(O)c(NC(=O)c4ccc(O)c(CC=C(C)C)c4)c(=O)oc3c2C)OC1(C)C
viability, T/C [%]: 89.2
